System: A549 lung cancer cells
Experiment: A549 proliferation, sulforhodamine B (SRB) assay
Format: cell-based, human
Conditions: Homo sapiens, A549, Table 1 of b347; sulforhodamine B assay, triplicate
Procedure: FIG. 28 is a graph showing the results of a cell proliferation assay. A549 cells, which are human lung cancer cells, are grown in plates for five days in medium containing 5% FCS and compound. The number of cells is quantified by staining with sulforhodamine B.
Assign labels as follows, please: satisfied for GI50 below 5 µM; not satisfied for GI50 equal to or exceeding 5 µM.

1. COC(=O)/C(Cc1ccccc1)=N/Nc1nc(-c2ccccc2)cs1    not satisfied
2. O=C(O)/C(Cc1ccccc1)=N/Nc1nc(-c2ccccc2)cs1    not satisfied
3. O=[N+]([O-])c1ccccc1CC(CO)NNc1nc(-c2ccc(Cl)c(Cl)c2)cs1 (stereo not drawn)    satisfied
4. O=C(O)/C(Cc1ccccc1)=N/Nc1ccc(-c2ccccc2)nn1    not satisfied
5. Cc1sc(N/N=C(\Cc2ccccc2)C(=O)O)nc1-c1ccccc1    satisfied
6. O=C(O)/C(Cc1ccccc1)=N/Nc1nc(-c2ccccc2)c(-c2ccccc2)s1    satisfied
7. O=C(Cc1ccccc1)NNc1nc(-c2ccccc2)cs1    not satisfied
8. O=C(O)/C(=N/Nc1nc(-c2ccccc2)cs1)c1ccccc1    not satisfied
9. O=C(O)/C(Cc1ccccc1)=N\Nc1nnc(-c2ccccc2)s1    not satisfied
10. O=C(O)/C(Cc1ccccc1)=N/NC(=S)NCc1ccccc1    not satisfied
11. O=C(O)C(Cc1ccccc1)=NNc1nnc(-c2ccccc2)s1    not satisfied
12. C/C(=N\Nc1nc(-c2ccccc2)cs1)C(=O)O    not satisfied
13. OC/C(Cc1ccccc1)=N/Nc1nc(-c2ccccc2)cs1    not satisfied
14. C(/Cc1ccccc1)=N/Nc1nc(-c2ccccc2)cs1    not satisfied

====

Test system: A549 lung cancer cells
Assay: A549 proliferation, sulforhodamine B (SRB) assay
Assay type: cell-based, human
Conditions: Homo sapiens, A549, Table 1 of b280; sulforhodamine B assay, triplicate
Recorded GI50 by entry
observed-property: GI50

1) O=C(O)/C(Cc1ccccc1[N+](=O)[O-])=N/Nc1nc(-c2ccc(N3CCCC3)cc2)cs1    > 20 µM
2) O=C(O)/C(Cc1ccccc1)=N/Nc1ccc(-c2ccccc2)nn1    > 10 µM
3) O=C(O)/C(Cc1ccccc1)=N\Nc1nnc(-c2ccccc2)s1    > 10 µM
4) O=C(O)/C(Cc1ccccc1)=N/NC(=S)NCc1ccccc1    > 10 µM

====

Biological target: eIF4E/eIF4G interaction (Mus musculus)
Construct: made in house; host or cells: E. coli
Sequence (P63073 whole entry): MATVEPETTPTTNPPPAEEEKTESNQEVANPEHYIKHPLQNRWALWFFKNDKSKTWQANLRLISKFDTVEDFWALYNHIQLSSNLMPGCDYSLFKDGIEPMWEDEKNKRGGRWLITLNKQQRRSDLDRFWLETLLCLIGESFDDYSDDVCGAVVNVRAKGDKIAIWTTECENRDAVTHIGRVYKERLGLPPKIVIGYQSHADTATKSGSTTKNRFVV
Test: Fluorescence polarization assay: binding of fluorescein-labeled eIF4G peptide to eIF4E
Set-up: species or system murine
Conditions: Table 1 of b280; triplicate, SD<±10%; read-out: IC50 (μM) (4E/4G FP)
observed-property: IC50

1) O=C(O)/C(=N/Nc1nc(-c2ccccc2)cs1)c1ccccc1    > 600 µM
2) O=C(O)C(Cc1ccccc1)=NNc1nc(-c2ccccc2)cs1    > 600 µM
3) C(/Cc1ccccc1)=N/Nc1nc(-c2ccccc2)cs1    > 600 µM

Where do the numbers come from? From patent US8257931B2.
